Here, each record is paired with measured median seed-adjusted z-score data.
Method: Novel Modifiers of Survival Motor Neuron (SMN) Protein: Gene Identification via Genome-wide siRNA Screen;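 further: luminescence tracks full-length SMN protein made from the SMN2 reporter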
Setup conditions: HEK293T SMN2-luciferase reporter, siRNA knockdown, 72 h; actives lie on both sides
The whole screen tested about 31,000 sequences, of which about 1,400 (4.5%) were called active. Shown is part of a subset that was picked to be rich in actives.
Please give only the number in your answer, with no unit.

Below: 5 sequences and their reported median seed-adjusted z-score.
Prompt line: May I ask what median seed-adjusted z-score has been recorded for CGAAAACAGGAGAUCAUUATT against CAMK2G ?
Response line: -0.107

Prompt line: median seed-adjusted z-score for GCCUCGAGCCUAUUCGUUATT against PCDHB4 ?
Response line: 0.00998

Prompt line: Which value of median seed-adjusted z-score has been reported for GGUACUCCAGAGUAUAACATT against CMYA5 in the records?
Response line: -0.858

Prompt line: Given the entry CCACAUCUCUACUCGUGAATT against ULK4 , report its measured median seed-adjusted z-score.
Response line: 0.0834

Prompt line: Which median seed-adjusted z-score reading was recorded for the sequence UGCACGAUCUUCUACCCAATT against TKTL1 ?
Response line: -0.495

---
Prompt line: Look at this sequence and give its reported median seed-adjusted z-score. GAGUCUAUCUUGAUAAUCUTT against PPWD1
Response line: -0.341

Prompt line: Item under review: GCAUCAUCCAGAACACGGATT against ARHGEF18 . Reported median seed-adjusted z-score?
Response line: 0.586

Prompt line: For the sequence CGAACCUAAUGCUCAACAATT against PREX2 , what median seed-adjusted z-score is on record?
Response line: -0.0625

Prompt line: // returns reported median seed-adjusted z-score for input CCAUGACACGGUCCUCCAATT against ICAM2
Response line: 0.269

Prompt line: Find the recorded median seed-adjusted z-score belonging to CCAUGUCAGUCCUAGGAAATT against ATRIP and report it.
Response line: 0.353

Prompt line: Item under review: GGAGCUUUGUCAAGAAGAUTT against FKBPL . Reported median seed-adjusted z-score?
Response line: -1.11

Prompt line: For the sequence shown here, GACCUAUGCAGUUCGAAAATT against SFRS1 , give the reported median seed-adjusted z-score.
Response line: -1.66

----------
Method: Novel Modifiers of Survival Motor Neuron (SMN) Protein: Gene Identification via Genome-wide siRNA Screen;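 further: luminescence tracks full-length SMN protein made from the SMN2 reporter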
Setup conditions: HEK293T SMN2-luciferase reporter, siRNA knockdown, 72 h; actives lie on both sides
Hit rate of the full screen: of about 31,000 sequences, about 1,400 (4.5%) were called active.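 How the source made its calls: active means median seed-adjusted z-score above 1 or below -1; inactive means the rest.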 The full list was thinned out, with actives kept by preference.
Choose one outcome from this list and give only that: label 1 = active, label 0 = inactive

Worked set:
Prompt line: How did this test come out for AGAUGUACCUGUUCGUGUATT against DNASE1L2 ?
Response line: label 0

Prompt line: Would you mind telling me which call this test gave GCCUCACCGUCUAUGUACATT against CD200 ?
Response line: label 0

Prompt line: Hey, what did the test say about CGGCUGAUGUUCUCGAAUUTT against BRD3 ?
Response line: label 0

Prompt line: Assay outcome for CGACCCUCAGAAUGAUAAATT against ARPC3 : what was it?
Response line: label 0

Next:
Prompt line: In this assay, the call recorded for GCAAGACCGAAGUAAACUATT against GPX4 was what?
Response line: label 1

Prompt line: GET /call?item= UAACCGAUUUGAUAUGAAUTT against ANKRA2 returns the recorded outcome of this test.
Response line: label 1

Prompt line: Kindly provide the recorded test outcome for the following sequence: GGAUGGUCUUUUAGUAAGATT against CBR4
Response line: label 0

----------
Method: Novel Modifiers of Survival Motor Neuron (SMN) Protein: Gene Identification via Genome-wide siRNA Screen;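 further: luminescence tracks full-length SMN protein made from the SMN2 reporter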
Setup conditions: HEK293T SMN2-luciferase reporter, siRNA knockdown, 72 h; actives lie on both sides
Out of some 31,000 sequences screened, about 1,400 (4.5%) were called active. The full list was thinned out, with actives kept by preference.
Output met for records whose median seed-adjusted z-score is lower than 0, not met for records at or above 0.

Prompt line: Is the reported median seed-adjusted z-score for CACAAGCAAGUUCAAAUAATT against FCRL4 strictly below 0?
Response line: met

Prompt line: Could you please tell me whether median seed-adjusted z-score recorded for CGAACCAUUUCAUCACGUATT against MARS2 is less than 0?
Response line: met

Prompt line: Below 0 on median seed-adjusted z-score? Entry GCUAUGUCAUCACUACCAATT against KCNAB3
Response line: not met

Prompt line: Strictly below 0: is that where median seed-adjusted z-score of GUUCCGAAGUGGUCUCAUUTT against MINPP1 sits?
Response line: met

Further cases:
Prompt line: hey, is median seed-adjusted z-score for CAAUCUUCUUGGGAUUAUUTT against TRPC7 lower than 0 or not?
Response line: not met

Prompt line: Is median seed-adjusted z-score of GAAUGGAGGUCAACUAUAUTT against UBE2E2 strictly below 0?
Response line: met

Prompt line: Please let me know if AGCCUGUAGCUUAAACUUATT against KCTD12 shows median seed-adjusted z-score below 0.
Response line: not met

----------
Method: Novel Modifiers of Survival Motor Neuron (SMN) Protein: Gene Identification via Genome-wide siRNA Screen;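 further: luminescence tracks full-length SMN protein made from the SMN2 reporter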
Setup conditions: HEK293T SMN2-luciferase reporter, siRNA knockdown, 72 h; actives lie on both sides
Among all 31,000 sequences or so, about 1,400 (4.5%) were called active.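 Rule for the calls: active = median seed-adjusted z-score above 1 or below -1; inactive = the rest.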 This is one part of a sample in which actives are shown more often than they occur.
Give one outcome, nothing more. List: yes (active), no (inactive)

Prompt line: Called result for CGAUAUAAGCUCCGAGAGATT against POLR2E
Response line: yes

Prompt line: Just curious, what result did GCAUCGACGUGAUCACCAUTT against GPR26 get here?
Response line: yes

Prompt line: Lab log entry: GCAUGAUCUAGAUCGAGUATT against UQCRFS1 — outcome as called in the assay?
Response line: yes

Prompt line: Call for entry GCAUGGUCUUUCUACUUGUTT against TUBB2A :
Response line: yes

Prompt line: For this sequence, state the assay outcome: GCCCUGAAGAUAUCGUGAATT against PARVG
Response line: no

Next sequence, please.
Prompt line: What was the test verdict on AGCACAUCUCGGUCCUCCATT against MAPK8IP2 ?
Response line: no

----------
Method: Novel Modifiers of Survival Motor Neuron (SMN) Protein: Gene Identification via Genome-wide siRNA Screen;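 further: luminescence tracks full-length SMN protein made from the SMN2 reporter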
Setup conditions: HEK293T SMN2-luciferase reporter, siRNA knockdown, 72 h; actives lie on both sides
The whole screen tested about 31,000 sequences, of which about 1,400 (4.5%) were called active.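 Rule for the calls: active = median seed-adjusted z-score above 1 or below -1; inactive = the rest.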 Shown is part of a subset that was picked to be rich in actives.
The reply should be one of these categories: T for active, F for inactive

Consider the following illustrative entries.
Prompt line: Any idea what this test logged for GAACCUUCGGGAGAACCUUTT against FKBPL ?
Response line: T

Prompt line: Answer briefly: the call reported for CCACUAGUGAAACAACCAATT against PCLO in this assay.
Response line: F

---
Prompt line: Outcome? CUGGAUAAGUGUUUCGAAATT against AP3S2
Response line: F

Prompt line: Any idea what this test logged for CAAAAUGCAUUAGCUGAAATT against VIP ?
Response line: T

Prompt line: Assay outcome for GCACCUCACCCAUCAAUGATT against RERE : what was it?
Response line: F

Prompt line: How did this test come out for GUGUAGACAUAGUCUAAAATT against ZNF532 ?
Response line: F

Prompt line: Any idea what this test logged for CCACUCUCAUUGUGACUGATT against DDX54 ?
Response line: F

Prompt line: // outcome(item) with item = AGGCCGCUGUGGACAUCAATT against CASKIN1
Response line: F

----------
Method: Novel Modifiers of Survival Motor Neuron (SMN) Protein: Gene Identification via Genome-wide siRNA Screen;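 further: luminescence tracks full-length SMN protein made from the SMN2 reporter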
Setup conditions: HEK293T SMN2-luciferase reporter, siRNA knockdown, 72 h; actives lie on both sides
Out of some 31,000 sequences screened, about 1,400 (4.5%) were called active.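 The calls were made as follows: active = median seed-adjusted z-score above 1 or below -1; inactive = the rest.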 Shown is part of a subset that was picked to be rich in actives.
The reply should name one outcome from active, inactive

Prompt line: Can you look up the reported call for CACUUGCACAGAUACCCUUTT against COLEC12 for me?
Response line: active

Continuing:
Prompt line: How was GGAUGGGCCUUGAAGCCUUTT against GPR97 classified in this test?
Response line: inactive

Prompt line: What did this assay record as the result for CCAGGGAUAUGAUUGACAATT against SERPINE2 ?
Response line: inactive

Prompt line: Recorded test outcome, item GAAAAAGGGUCACCAGAAATT against TSG101
Response line: active

Prompt line: For GCUCCUGGAGUUAAGCUUATT against SPINK2 , which call appears in the assay record?
Response line: inactive

Prompt line: For CCUUGACUGUGGACAACAATT against PURA , which call appears in the assay record?
Response line: inactive

Prompt line: For CUCUCUUAGUGUCCUUAGATT against PCDHGC4 , what call appears in the results of this test?
Response line: inactive

Prompt line: Could you please tell me the result logged for GGGAAGAACAGAAUACUGATT against ZNF563 in this assay?
Response line: inactive

Prompt line: Outcome? CACUGGAGACUUUCGCUUUTT against ZNF813
Response line: inactive

Prompt line: Which result was noted for this sequence in the test: GGAUCAUCAUGGAAUUGUATT against PTK2B
Response line: active

Prompt line: Status in this test for CAGGUUUUCUACAACAACATT against ABCA2 ?
Response line: active

Prompt line: Would you mind telling me which call this test gave GGAACUGCUGCAUUAGAUATT against ITCH ?
Response line: inactive

Prompt line: Just curious, what result did AGCUACUAGUGGAGCAGAATT against BAT1 get here?
Response line: active

Prompt line: Which outcome was entered for the sequence GGACACAUCUCGGACAGCATT against KLK9 in this test?
Response line: inactive

Prompt line: Status in this test for CCUGGAGAGUUACUUUGAATT against CCL23 ?
Response line: inactive

Prompt line: Called result for GACCAUGGAUAAUAAGAAATT against CLCN6
Response line: inactive

Prompt line: Please let me know the test result on file for GAGCCGUACUAUGACCUGATT against SSTR2 .
Response line: inactive

Prompt line: Recorded call for CGAGCAAUUUAGAGACUUATT against PCDHGA3 ?
Response line: inactive

Prompt line: Can you look up the reported call for AGAUUUAUCUUGAAGCUGATT against ARL4D for me?
Response line: inactive

Prompt line: GET /call?item= GCAUCGAAUUUGCAGAACATT against PNN returns the recorded outcome of this test.
Response line: active

Prompt line: Test call for this sequence, please: GCUGUGAAAUUGUUUCGAATT against IREB2
Response line: inactive

Prompt line: Call for entry GGUGGAUGCUCAAUCCAGATT against FOXO1 :
Response line: inactive

The measured values listed here are drawn from PubChem BioAssay AID1347426.
